system: Staphylococcus aureus; assay: Antibacterial activity against Staphylococcus aureus MTCC 96 at 250 ug/ml after 24 hrs by Kirby-Bauer method; format: functional; conditions: MTCC 96, 24 h, read-out: IZ
Please go through the items and note down their zone of inhibition at 250 µg/mL.
Give the value, in units of mm, as a plain number.

Return reported zone of inhibition at 250 µg/mL. Input compound: [O-]c1on[n+](-c2ccc(Cc3ccc(-[n+]4noc([O-])c4CN4CCOCC4)cc3)cc2)c1CN1CCOCC1 21

Return reported zone of inhibition at 250 µg/mL. Input compound: [O-]c1on[n+](-c2ccc(Cc3ccc(-[n+]4noc([O-])c4CN4CCN(c5cccc(Cl)c5Cl)CC4)cc3)cc2)c1CN1CCN(c2cccc(Cl)c2Cl)CC1 21

Return reported zone of inhibition at 250 µg/mL. Input compound: Cc1ccc(-[n+]2noc([O-])c2CN2CCN(c3ccccc3)CC2)cc1 18

Return reported zone of inhibition at 250 µg/mL. Input compound: [O-]c1on[n+](-c2ccc(Cc3ccc(-[n+]4noc([O-])c4CN4CCN(c5ccccc5)CC4)cc3)cc2)c1CN1CCN(c2ccccc2)CC1 17

Return reported zone of inhibition at 250 µg/mL. Input compound: Cc1ccc(-[n+]2noc([O-])c2CN2CCN(c3cccc(Cl)c3)CC2)cc1 22

Return reported zone of inhibition at 250 µg/mL. Input compound: Cc1ccc(-[n+]2noc([O-])c2CN2CCNCC2)cc1 17

Return reported zone of inhibition at 250 µg/mL. Input compound: Cc1ccc(-[n+]2noc([O-])c2CN2CCN(CCOCCO)CC2)cc1 19

Return reported zone of inhibition at 250 µg/mL. Input compound: [O-]c1on[n+](-c2ccc(Cc3ccc(-[n+]4noc([O-])c4CN4CCCCC4)cc3)cc2)c1CN1CCCCC1 18

Return reported zone of inhibition at 250 µg/mL. Input compound: CC(=O)N1CCN(Cc2c([O-])on[n+]2-c2ccc(Cc3ccc(-[n+]4noc([O-])c4CN4CCN(C(C)=O)CC4)cc3)cc2)CC1 20

Return reported zone of inhibition at 250 µg/mL. Input compound: CN1CCN(Cc2c([O-])on[n+]2-c2ccc(Cc3ccc(-[n+]4noc([O-])c4CN4CCN(C)CC4)cc3)cc2)CC1 16

Return reported zone of inhibition at 250 µg/mL. Input compound: Cc1ccc(-[n+]2noc([O-])c2CN2CCN(C)C(c3ccccc3)C2)cc1 (configuration not stated) 19

Return reported zone of inhibition at 250 µg/mL. Input compound: [O-]c1on[n+](-c2ccc(Cc3ccc(-[n+]4noc([O-])c4CN4CCNCC4)cc3)cc2)c1CN1CCNCC1 18

----------
assay: Cytotoxicity against human HEL cells; type: cell-based
Quantity Name: CC50 (µg/mL)
Give the value, in units of µg/mL, as a plain number.

Return reported CC50. Input compound: Cc1ccc(-[n+]2noc([O-])c2CN2CCN(C3=Nc4ccccc4Sc4ccccc43)CC2)cc1 14.8

Return reported CC50. Input compound: Cc1ccc(-[n+]2cc([O-])on2)cc1 33.1

Return reported CC50. Input compound: CC(=O)N1CCN(Cc2c([O-])on[n+]2-c2ccc(Cc3ccc(-[n+]4noc([O-])c4CN4CCN(C(C)=O)CC4)cc3)cc2)CC1 10.2

----------
test system: Cytomegalovirus; assay: Antiviral activity against Cytomegalovirus Davis in HEL cells assessed as reduction in plaque formation; format: functional, organism-based; conditions: Human betaherpesvirus 5, Davis
Please go through the items and note down their EC50.

Return reported EC50. Input compound: Cc1ccc(-[n+]2noc([O-])c2CN2CCN(c3ccccc3)CC2)cc1 > 20 µg/mL

Return reported EC50. Input compound: [O-]c1on[n+](-c2ccc(Cc3ccc(-[n+]4noc([O-])c4CN4CCN(c5cccc(Cl)c5)CC4)cc3)cc2)c1CN1CCN(c2cccc(Cl)c2)CC1 20 µg/mL

Return reported EC50. Input compound: [O-]c1on[n+](-c2ccc(Cc3ccc(-[n+]4noc([O-])c4CN4CCCCC4)cc3)cc2)c1CN1CCCCC1 20 µg/mL

Return reported EC50. Input compound: [O-]c1on[n+](-c2ccc(Cc3ccc(-[n+]4noc([O-])c4CN4CCN(c5cccc(Cl)c5Cl)CC4)cc3)cc2)c1CN1CCN(c2cccc(Cl)c2Cl)CC1 > 20 µg/mL

Return reported EC50. Input compound: [O-]c1on[n+](-c2ccc(Cc3ccc(-[n+]4noc([O-])c4CN4CCN(C5=Nc6ccccc6Sc6ccccc65)CC4)cc3)cc2)c1CN1CCN(C2=Nc3ccccc3Sc3ccccc32)CC1 > 20 µg/mL

Return reported EC50. Input compound: CN1CCN(Cc2c([O-])on[n+]2-c2ccc(Cc3ccc(-[n+]4noc([O-])c4CN4CCN(C)C(c5ccccc5)C4)cc3)cc2)CC1c1ccccc1 (configuration not stated) > 20 µg/mL

Return reported EC50. Input compound: Cc1ccc(-[n+]2noc([O-])c2CN2CCN(C)C(c3ccccc3)C2)cc1 (configuration not stated) > 20 µg/mL

----------
system: Candida albicans; assay: Antifungal activity against Candida albicans MTCC 227 at 250 ug/ml after 74 hrs by Kirby-Bauer method; assay type: functional; settings: MTCC 227, 74 h, read-out: IZ
Quantity Name: zone of inhibition at 250 µg/mL (mm)
Give the value, in units of mm, as a plain number.

Jot down zone of inhibition at 250 µg/mL (Candida albicans) of CN1CCN(Cc2c([O-])on[n+]2-c2ccc(Cc3ccc(-[n+]4noc([O-])c4CN4CCN(C)C(c5ccccc5)C4)cc3)cc2)CC1c1ccccc1 (stereo unspecified) . 18

Jot down zone of inhibition at 250 µg/mL (Candida albicans) of CC(=O)N1CCN(Cc2c([O-])on[n+]2-c2ccc(C)cc2)CC1 . 22

Jot down zone of inhibition at 250 µg/mL (Candida albicans) of [O-]c1on[n+](-c2ccc(Cc3ccc(-[n+]4noc([O-])c4CN4CCN(C5=Nc6ccccc6Sc6ccccc65)CC4)cc3)cc2)c1CN1CCN(C2=Nc3ccccc3Sc3ccccc32)CC1 . 25

Jot down zone of inhibition at 250 µg/mL (Candida albicans) of [O-]c1on[n+](-c2ccc(Cc3ccc(-[n+]4noc([O-])c4CN4CCN(c5ccccc5)CC4)cc3)cc2)c1CN1CCN(c2ccccc2)CC1 . 21

Jot down zone of inhibition at 250 µg/mL (Candida albicans) of Cc1ccc(-[n+]2noc([O-])c2CN2CCN(C3=Nc4ccccc4Sc4ccccc43)CC2)cc1 . 21

Jot down zone of inhibition at 250 µg/mL (Candida albicans) of CC(=O)N1CCN(Cc2c([O-])on[n+]2-c2ccc(Cc3ccc(-[n+]4noc([O-])c4CN4CCN(C(C)=O)CC4)cc3)cc2)CC1 . 23

Jot down zone of inhibition at 250 µg/mL (Candida albicans) of COC1=CC(=O)C[C@@H](C)[C@]12Oc1c(Cl)c(OC)cc(OC)c1C2=O . 24

Jot down zone of inhibition at 250 µg/mL (Candida albicans) of Cc1ccc(-[n+]2noc([O-])c2CN2CCN(C)C(c3ccccc3)C2)cc1 (stereo unspecified) . 18

Jot down zone of inhibition at 250 µg/mL (Candida albicans) of CN1CCN(Cc2c([O-])on[n+]2-c2ccc(Cc3ccc(-[n+]4noc([O-])c4CN4CCN(C)CC4)cc3)cc2)CC1 . 19

Jot down zone of inhibition at 250 µg/mL (Candida albicans) of [O-]c1on[n+](-c2ccc(Cc3ccc(-[n+]4noc([O-])c4CN4CCN(c5cccc(Cl)c5)CC4)cc3)cc2)c1CN1CCN(c2cccc(Cl)c2)CC1 . 21

Jot down zone of inhibition at 250 µg/mL (Candida albicans) of [O-]c1on[n+](-c2ccc(Cc3ccc(-[n+]4noc([O-])c4CN4CCCCC4)cc3)cc2)c1CN1CCCCC1 . 22

Jot down zone of inhibition at 250 µg/mL (Candida albicans) of [O-]c1on[n+](-c2ccc(Cc3ccc(-[n+]4noc([O-])c4CN4CCNCC4)cc3)cc2)c1CN1CCNCC1 . 21

Jot down zone of inhibition at 250 µg/mL (Candida albicans) of [O-]c1on[n+](-c2ccc(Cc3ccc(-[n+]4noc([O-])c4CN4CCOCC4)cc3)cc2)c1CN1CCOCC1 . 23

Jot down zone of inhibition at 250 µg/mL (Candida albicans) of Cc1ccc(-[n+]2noc([O-])c2CN2CCCCC2)cc1 . 21

Jot down zone of inhibition at 250 µg/mL (Candida albicans) of Cc1ccc(-[n+]2noc([O-])c2CN2CCN(c3cccc(Cl)c3)CC2)cc1 . 21

Jot down zone of inhibition at 250 µg/mL (Candida albicans) of Cc1ccc(-[n+]2noc([O-])c2CN2CCN(c3ccccc3)CC2)cc1 . 21

----------
Please go through the items and note down their MIC.
tested on: Aspergillus niger; experiment: Antifungal activity against Aspergillus niger MTCC 282; type: functional
Give the value, in units of µg/mL, as a plain number.

Jot down MIC (Aspergillus niger) of [O-]c1on[n+](-c2ccc(Cc3ccc(-[n+]4noc([O-])c4CN4CCNCC4)cc3)cc2)c1CN1CCNCC1 . 250

Jot down MIC (Aspergillus niger) of CC(=O)N1CCN(Cc2c([O-])on[n+]2-c2ccc(Cc3ccc(-[n+]4noc([O-])c4CN4CCN(C(C)=O)CC4)cc3)cc2)CC1 . 1000

Jot down MIC (Aspergillus niger) of [O-]c1on[n+](-c2ccc(Cc3ccc(-[n+]4noc([O-])c4CN4CCN(c5cccc(Cl)c5)CC4)cc3)cc2)c1CN1CCN(c2cccc(Cl)c2)CC1 . 1000

Jot down MIC (Aspergillus niger) of Cc1ccc(-[n+]2noc([O-])c2CN2CCN(C)CC2)cc1 . 500
